Assay: Phase 1 Study S-(1)-01, i.v. weekly x3 in a 28-day cycle, safety and pharmacokinetics
Format: in vivo, patients
Conditions: both sexes, human, plasma, intravenous; Study S-(1)-01, after first dose; read-out: Plasma t1/2, range over dose groups
metric: half-life

INSERT INTO measurements (molecule, metric, reported_measurement) VALUES
  ('C=C[C@H]1O[C@H]2CC3OC[C@@]3(OC(C)=O)[C@H]3[C@H](OC(=O)c4ccccc4)[C@]4(C(C)(C)O)C[C@H](OC(=O)[C@H](O)[C@H](CC(C)C)NC(=O)OC(C)(C)C)C(C)=C4[C@H](OC(C)=O)[C@H](O1)[C@]23C (stereo partly drawn) [S-(1)]', 'half-life', '3.45 to 8.4 h');
